Reported Biodistribution: spleen values for a set of compounds
System: PSMA + PC-3 PiP and PSMA − PC-3 flu tumor xenografts
conditions: 21 H post-injection
Your answer should be a plain number; it is taken to be in % ID/g.

Use the examples below as a reference point.
O=C(O)CC[C@H](NC(=O)N[C@@H](CCC(=O)NCCc1ccc([211At])cc1)C(=O)O)C(=O)O [[^211At]HS-549]	2.31
O=C(O)CC[C@H](NC(=O)N[C@@H](CCC(=O)NCCc1ccc([131I])cc1)C(=O)O)C(=O)O [[^131I]HS-549]	0.29
O=C(O)CC[C@H](NC(=O)N[C@@H](CCCCNC(=O)c1ccc([131I])cc1)C(=O)O)C(=O)O [[^131I]YC-I-27]	5.25
N=C(N)NCc1ccc(C(=O)NCCCCC(NC(=O)CCCCCCC(=O)NCCCC[C@H](NC(=O)N[C@@H](CCC(=O)O)C(=O)O)C(=O)O)C(=O)O)cc1[131I] (stereo partly drawn) [[^131I] labeled PSMA-904]	0.16

[Q] Name the recorded Biodistribution: spleen of N=C(N)NCc1ccc(C(=O)NCCCC[C@H](NC(=O)N[C@@H](CCC(=O)O)C(=O)O)C(=O)O)cc1[131I] [[^131I] labeled 7 (PSMA-620)] , assay system PSMA + PC-3 PiP and PSMA − PC-3 flu tumor xenografts.
[A] 0.93

[Q] Name the recorded Biodistribution: spleen of N=C(N)NCc1ccc(C(=O)NCCCCC(NC(=O)CCCCCCC(=O)NCCCC[C@H](NC(=O)N[C@@H](CCC(=O)O)C(=O)O)C(=O)O)C(=O)O)cc1[211At] (stereo partly drawn) [[^211At] labeled PSMA-904] , assay system PSMA + PC-3 PiP and PSMA − PC-3 flu tumor xenografts.
[A] 2.07

###

System: PSMA + PC-3 PiP and PSMA − PC-3 flu tumor xenografts
conditions: 2 H post-injection
Reported Biodistribution: Sm int. values for a set of compounds
Your answer should be a plain number; it is taken to be in % ID/g.

Use the examples below as a reference point.
O=C(O)CC[C@H](NC(=O)NC(CCCCNC(=O)c1ccc([211At])cc1)C(=O)O)C(=O)O (some centres unmarked) [[^211At]YC-I-27]	2.08
O=C(O)CC[C@H](NC(=O)N[C@@H](CCC(=O)NCCc1ccc([131I])cc1)C(=O)O)C(=O)O [[^131I]HS-549]	2.42

[Q] Note Biodistribution: Sm int. for the compound shown: N=C(N)NCc1ccc(C(=O)NCCCCC(NC(=O)CCCCCCC(=O)NCCCC[C@H](NC(=O)N[C@@H](CCC(=O)O)C(=O)O)C(=O)O)C(=O)O)cc1[131I] (some centres unmarked) [[^131I] labeled PSMA-904]
[A] 14.2

###

Test system: PSMA + PC-3 PiP and PSMA − PC-3 flu tumor xenografts
conditions: 1 H post-injection
measured_property: Biodistribution: heart (% ID/g)
Your answer should be a plain number; it is taken to be in % ID/g.

Use the examples below as a reference point.
O=C(O)CC[C@H](NC(=O)N[C@@H](CCCCNC(=O)c1ccc([131I])cc1)C(=O)O)C(=O)O [[^131I]YC-I-27]	1.88
O=C(O)CC[C@H](NC(=O)N[C@@H](CCC(=O)NCCc1ccc([211At])cc1)C(=O)O)C(=O)O [[^211At]HS-549]	4.34
N=C(N)NCc1ccc(C(=O)NCCCC[C@H](NC(=O)N[C@@H](CCC(=O)O)C(=O)O)C(=O)O)cc1[131I] [[^131I] labeled 7 (PSMA-620)]	1.29
O=C(O)CC[C@H](NC(=O)N[C@@H](CCC(=O)NCCc1ccc([131I])cc1)C(=O)O)C(=O)O [[^131I]HS-549]	2.30

Please examine the following record next.
[Q] Name the recorded Biodistribution: heart of O=C(O)CC[C@H](NC(=O)N[C@@H](CSCc1ccc([125I])cc1)C(=O)O)C(=O)O [[^125I] labeled DCIBC] , assay system PSMA + PC-3 PiP and PSMA − PC-3 flu tumor xenografts.
[A] 1.5

###

Test system: PSMA + PC-3 PiP and PSMA − PC-3 flu tumor xenografts
conditions: 1 H post-injection
Reported Biodistribution: liver values for a set of compounds
Your answer should be a plain number; it is taken to be in % ID/g.

N=C(N)NCc1ccc(C(=O)NCCCCC(NC(=O)CCCCCCC(=O)NCCCC[C@H](NC(=O)N[C@@H](CCC(=O)O)C(=O)O)C(=O)O)C(=O)O)cc1[131I] (some centres unmarked) [[^131I] labeled PSMA-904]	5.16

[Q] Note Biodistribution: liver for the compound shown: O=C(O)CC[C@H](NC(=O)N[C@@H](CSCc1ccc([125I])cc1)C(=O)O)C(=O)O [[^125I] labeled DCIBC]
[A] 20

[Q] Note Biodistribution: liver for the compound shown: O=C(O)CC[C@H](NC(=O)N[C@@H](CCC(=O)NCCc1ccc([131I])cc1)C(=O)O)C(=O)O [[^131I]HS-549]
[A] 21.2

[Q] Note Biodistribution: liver for the compound shown: O=C(O)CC[C@H](NC(=O)N[C@@H](CCCCNC(=O)c1ccc([131I])cc1)C(=O)O)C(=O)O [[^131I]YC-I-27]
[A] 7.37

[Q] Note Biodistribution: liver for the compound shown: O=C(O)CC[C@H](NC(=O)N[C@@H](CCC(=O)NCCc1ccc([211At])cc1)C(=O)O)C(=O)O [[^211At]HS-549]
[A] 7.94

[Q] Note Biodistribution: liver for the compound shown: N=C(N)NCc1ccc(C(=O)NCCCCC(NC(=O)CCCCCCC(=O)NCCCC[C@H](NC(=O)N[C@@H](CCC(=O)O)C(=O)O)C(=O)O)C(=O)O)cc1[211At] (some centres unmarked) [[^211At] labeled PSMA-904]
[A] 5.11

[Q] Note Biodistribution: liver for the compound shown: O=C(O)CC[C@H](NC(=O)NC(CCCCNC(=O)c1ccc([211At])cc1)C(=O)O)C(=O)O (some centres unmarked) [[^211At]YC-I-27]
[A] 2.11

[Q] Note Biodistribution: liver for the compound shown: N=C(N)NCc1ccc(C(=O)NCCCC[C@H](NC(=O)N[C@@H](CCC(=O)O)C(=O)O)C(=O)O)cc1[131I] [[^131I] labeled 7 (PSMA-620)]
[A] 8.25

###

Reported Biodistribution: PC-3 PiP values for a set of molecules
Test system: PSMA + PC-3 PiP and PSMA − PC-3 flu tumor xenografts
conditions: PSMA+ tumor xenograft, 21 H post-injection
Your answer should be a plain number; it is taken to be in % ID/g.

[Q] Note Biodistribution: PC-3 PiP for the molecule shown: N=C(N)NCc1ccc(C(=O)NCCCCC(NC(=O)CCCCCCC(=O)NCCCC[C@H](NC(=O)N[C@@H](CCC(=O)O)C(=O)O)C(=O)O)C(=O)O)cc1[131I] (stereo partly drawn) [[^131I] labeled PSMA-904]
[A] 19.2

[Q] Note Biodistribution: PC-3 PiP for the molecule shown: N=C(N)NCc1ccc(C(=O)NCCCCC(NC(=O)CCCCCCC(=O)NCCCC[C@H](NC(=O)N[C@@H](CCC(=O)O)C(=O)O)C(=O)O)C(=O)O)cc1[211At] (stereo partly drawn) [[^211At] labeled PSMA-904]
[A] 12.1

[Q] Note Biodistribution: PC-3 PiP for the molecule shown: O=C(O)CC[C@H](NC(=O)N[C@@H](CCC(=O)NCCc1ccc([131I])cc1)C(=O)O)C(=O)O [[^131I]HS-549]
[A] 22.6

[Q] Note Biodistribution: PC-3 PiP for the molecule shown: O=C(O)CC[C@H](NC(=O)N[C@@H](CCC(=O)NCCc1ccc([211At])cc1)C(=O)O)C(=O)O [[^211At]HS-549]
[A] 10.6

[Q] Note Biodistribution: PC-3 PiP for the molecule shown: N=C(N)NCc1ccc(C(=O)NCCCC[C@H](NC(=O)N[C@@H](CCC(=O)O)C(=O)O)C(=O)O)cc1[131I] [[^131I] labeled 7 (PSMA-620)]
[A] 13.6

[Q] Note Biodistribution: PC-3 PiP for the molecule shown: O=C(O)CC[C@H](NC(=O)N[C@@H](CCCCNC(=O)c1ccc([131I])cc1)C(=O)O)C(=O)O [[^131I]YC-I-27]
[A] 25.6

###

System: PSMA + PC-3 PiP and PSMA − PC-3 flu tumor xenografts
conditions: 2 H post-injection
measured_property: Biodistribution: muscle (% ID/g)
Your answer should be a plain number; it is taken to be in % ID/g.

O=C(O)CC[C@H](NC(=O)N[C@@H](CSCc1ccc([125I])cc1)C(=O)O)C(=O)O [[^125I] labeled DCIBC]	0.5
O=C(O)CC[C@H](NC(=O)N[C@@H](CCC(=O)NCCc1ccc([131I])cc1)C(=O)O)C(=O)O [[^131I]HS-549]	0.46

Please examine the following record next.
[Q] Note Biodistribution: muscle for the compound shown: N=C(N)NCc1ccc(C(=O)NCCCCC(NC(=O)CCCCCCC(=O)NCCCC[C@H](NC(=O)N[C@@H](CCC(=O)O)C(=O)O)C(=O)O)C(=O)O)cc1[211At] (stereo partly drawn) [[^211At] labeled PSMA-904]
[A] 0.21
